Please respond with reported self-aminoacylation for every item in the list.
- Tested on: biotinyl-Phe-oxazolone
- test_summary: self-aminoacylation, catalytic enhancement (BFO) (fold over background); higher = more active; k-Seq, kA / k0A0; sequences stand for … in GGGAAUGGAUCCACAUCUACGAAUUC…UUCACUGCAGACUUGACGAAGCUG
This sample holds only a part of the variants without activity.

Q: Item UUACUUCAAACAUUCGGUCUG [Fam1A.1 aminoacylation ribozyme variant] has what recorded self-aminoacylation?
Ans: 2.03

Q: Item AAGUUUGCAAAUAGUCGCGAG [Fam3.1 aminoacylation ribozyme variant] has what recorded self-aminoacylation?
Ans: 2.69

Q: Item CAGUUUGCUAAUAGUCGCAAC [Fam3.1 aminoacylation ribozyme variant] has what recorded self-aminoacylation?
Ans: 2.78

Q: Item AUUAGCUUGGUCAUCGAGUGA [Fam2.1 aminoacylation ribozyme variant] has what recorded self-aminoacylation?
Ans: 2.2

Q: Item CUACUUCAAACAAUCGGUCCC [Fam1A.1 aminoacylation ribozyme variant] has what recorded self-aminoacylation?
Ans: 11.1

Q: Item GCACACUCCAAGCAAUCGGUC [Fam1B.1 aminoacylation ribozyme variant] has what recorded self-aminoacylation?
Ans: 2.35

Q: Item CCACACUUCAAUCAAUCAGUC [Fam1B.1 aminoacylation ribozyme variant] has what recorded self-aminoacylation?
Ans: 22.8

Q: Item CUACUUCAACCAAUCGGUCGG [Fam1A.1 aminoacylation ribozyme variant] has what recorded self-aminoacylation?
Ans: 14.3

----------
- Test system: biotinyl-Phe-oxazolone
- test_summary: self-aminoacylation, catalytic enhancement (BFO) (fold over background); higher = more active; k-Seq, kA / k0A0; sequences stand for … in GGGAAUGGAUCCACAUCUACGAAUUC…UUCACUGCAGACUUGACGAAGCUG
Fewer inactive variants are shown than the library holds.
Classes based on self-aminoacylation: interval 1 = under 4, interval 2 = from 4 up to 8, interval 3 = 8 and over

Q: Looking at CAACUUCAAACAAUCCGUCUG [Fam1A.1 aminoacylation ribozyme variant] , which class would you pick?
Ans: interval 1

Q: Looking at AUUAACCUAGGACAUCGGGUG [Fam2.2 aminoacylation ribozyme variant] , which class would you pick?
Ans: interval 3

Q: Looking at CCACGCUUCAAGUAAUCGGUC [Fam1B.1 aminoacylation ribozyme variant] , which class would you pick?
Ans: interval 3

Q: Looking at AAGUGUGCUAACAGUCGCAAG [Fam3.1 aminoacylation ribozyme variant] , which class would you pick?
Ans: interval 3

Q: Looking at AAGUGUGCUAAUAGUGGCAAG [Fam3.1 aminoacylation ribozyme variant] , which class would you pick?
Ans: interval 1

Q: Looking at AAGGUUGCUAAUAGUCGUAAG [Fam3.1 aminoacylation ribozyme variant] , which class would you pick?
Ans: interval 3

Q: Looking at AUUCACCUAGGUCAUCGCGAG [Fam2.2 aminoacylation ribozyme variant] , which class would you pick?
Ans: interval 2

Q: Looking at AUUACCCUGGUCAACGAGUGU [Fam2.1 aminoacylation ribozyme variant] , which class would you pick?
Ans: interval 2

Q: Looking at CUACUUCAAAAAAUCGGGCUG [Fam1A.1 aminoacylation ribozyme variant] , which class would you pick?
Ans: interval 1

Q: Looking at CUACGUCAAACAAUCGCUCUG [Fam1A.1 aminoacylation ribozyme variant] , which class would you pick?
Ans: interval 1

Q: Looking at AAGUGUGCUCAUAGUCGCAAG [Fam3.1 aminoacylation ribozyme variant] , which class would you pick?
Ans: interval 2

Q: Looking at AAGAUUGCUAAUAGUCGCAAC [Fam3.1 aminoacylation ribozyme variant] , which class would you pick?
Ans: interval 1

Q: Looking at AUGCACCUAGGUCAUCGGGUC [Fam2.2 aminoacylation ribozyme variant] , which class would you pick?
Ans: interval 2

Q: Looking at AUUGCCCUGGUCGUCGAGUGA [Fam2.1 aminoacylation ribozyme variant] , which class would you pick?
Ans: interval 3

Q: Looking at CUACUGCAAACACUCGGUCUG [Fam1A.1 aminoacylation ribozyme variant] , which class would you pick?
Ans: interval 2

Q: Looking at CUCCUUCAAACAAUCGGUCUA [Fam1A.1 aminoacylation ribozyme variant] , which class would you pick?
Ans: interval 3

Q: Looking at CCAAACUUCGAGCAAUCGGUC [Fam1B.1 aminoacylation ribozyme variant] , which class would you pick?
Ans: interval 1

Q: Looking at GUGUUUGCUAAUAGUCGCAAG [Fam3.1 aminoacylation ribozyme variant] , which class would you pick?
Ans: interval 2

Q: Looking at GAGUUUGCUGAUAGUCGCAAG [Fam3.1 aminoacylation ribozyme variant] , which class would you pick?
Ans: interval 1

Q: Looking at CGACUUCAAACAAUCGGUCCG [Fam1A.1 aminoacylation ribozyme variant] , which class would you pick?
Ans: interval 2

Q: Looking at UAGUUUCCUAAUAGUCGCAAG [Fam3.1 aminoacylation ribozyme variant] , which class would you pick?
Ans: interval 1

Q: Looking at CCAACCUUCAAGCAAUCGGUC [Fam1B.1 aminoacylation ribozyme variant] , which class would you pick?
Ans: interval 3

Q: Looking at AAGUUGGCUAAUAGUCGAAAG [Fam3.1 aminoacylation ribozyme variant] , which class would you pick?
Ans: interval 1

Q: Looking at CCAUGCUUCAAGCAAUCGGUC [Fam1B.1 aminoacylation ribozyme variant] , which class would you pick?
Ans: interval 3

Q: Looking at UUAUUUCAAACAAUCGGUCUG [Fam1A.1 aminoacylation ribozyme variant] , which class would you pick?
Ans: interval 2

Q: Looking at AUUACCAUGCUCAUCGAGUGA [Fam2.1 aminoacylation ribozyme variant] , which class would you pick?
Ans: interval 1

Q: Looking at CGCCACUUCAAGCAAUCGGUC [Fam1B.1 aminoacylation ribozyme variant] , which class would you pick?
Ans: interval 3
